Recorded values, source patent US20150141411A1.

# target.desc: γ-secretase (Homo sapiens, UniProt P49768)
# Construct: endogenous in cells; host or cells: SKNBE2 human neuroblastoma cells (carrying hAPP 695 wild type as substrate)
# run.description: Screening for γ-secretase-modulating activity: Aβ42 in supernatant of SKNBE2 cells carrying hAPP 695 wild type (Alphalisa)
# Assay type: cell-based
# recorded.conditions: SKNBE2 human neuroblastoma cells carrying hAPP 695 wild type, overnight incubation, Aβ42 in cell supernatant
pIC50: −log10 of the molar value.
quantity: pIC50

(I) Cc1cn(-c2ccc3n(c2=O)CCN(Cc2cccc(-c4ccc(F)cc4C(F)(F)F)c2)C3=O)cn1
(II) Cc1cn(-c2ccc3n(c2=O)C[C@@H](C)N(CCc2ccccc2)C3=O)cn1
// query Pick one, I or II : lowest reported pIC50. Answer by stating the label of the chosen item.
// result II
(II: 5.81, I: 7.15)

(I) Cc1cn(-c2ccc3n(c2=O)CC(C)N(Cc2c[nH]c4cc(Br)ccc24)C3=O)cn1 (stereo not drawn)
(II) COc1cc(CN2C(=O)c3ccc(-n4cnc(C)c4)c(=O)n3C[C@H]2C)cc(C(F)(F)F)c1
// query Given the listed records, identify the one among I and II with higher pIC50. Refer to your chosen item by its label in the answer.
// result I
(I: 7.30, II: 6.72)

(P) CCOc1cc(C(C)N2C(=O)c3ccc(-n4cnc(C)c4)c(=O)n3C[C@H]2C)cc(C(F)(F)F)c1 (single isomer, unassigned) [compound 143]
(Q) Cc1cn(-c2ccc3n(c2=O)C[C@@H](C)N(CCc2cccc(Cl)c2Cl)C3=O)cn1
// query Hi! Which is lower in terms of pIC50, the first one P or the second one Q ? Record your answer as the label of the chosen record.
// result Q
(Q: 6.59, P: 7.22)

---

# target.desc: γ-secretase (Homo sapiens)
# Construct: endogenous in cells; host or cells: SKNBE2 human neuroblastoma cells (carrying hAPP 695 wild type as substrate)
# run.description: Screening for γ-secretase-modulating activity: Aβtotal in supernatant of SKNBE2 cells carrying hAPP 695 wild type (Alphalisa)
# Assay type: cell-based
# recorded.conditions: SKNBE2 human neuroblastoma cells carrying hAPP 695 wild type, overnight incubation, Aβtotal in cell supernatant
The compounds listed here are annotated with their IC50.

Cc1cn(-c2ccc3n(c2=O)CC(C)N(C2CCc4ccc(C(F)(F)F)cc42)C3=O)cn1 (stereo not drawn) [compound 204] = > 10 µM
Cc1cn(-c2ccc3n(c2=O)C[C@@H](C)N(CCc2cccc(C(F)(F)F)c2C)C3=O)cn1 [compound 229] = > 10 µM

Note: attention shifts to another entry.
// query Which IC50 value belongs to Cc1cn(-c2ccc3n(c2=O)CC(C)N(Cc2cn(C)c4cc(Br)ccc24)C3=O)cn1 (stereo not drawn) [compound 177] ?
// result > 10 µM

---

Structures can show the parent of a compound that is named as a salt.
quantity: melting point (°C)

Some molecules with recorded melting point:
Cc1cn(-c2ccc3n(c2=O)CC(C)N(Cc2cc(C(F)(F)F)cc(C(F)(F)F)c2)C3=O)cn1 (stereo not drawn) = 176.6
Cc1cn(-c2ccc3n(c2=O)C[C@@H](C)N(Cc2cc(Cl)cc(C(F)(F)F)c2)C3=O)cn1 = 180.4
Cc1cn(-c2ccc3n(c2=O)C[C@@H](C)N(Cc2cc(OC(C)C)c(Cl)cc2F)C3=O)cn1 (as salt: HCl) = 103.1
Cc1cn(-c2ccc3n(c2=O)C[C@@H](C)N(Cc2cn(C)c4cc(C(F)(F)F)ccc24)C3=O)cn1 = 161

(A) Cc1cn(-c2ccc3n(c2=O)CCN(Cc2ccc(Cl)c(C(F)(F)F)c2)C3=O)cn1
(B) Cc1cn(-c2ccc3n(c2=O)C[C@@H](C)N(Cc2cc(OC(F)(F)F)cc(C(F)(F)F)c2)C3=O)cn1 (as salt: HCl)
// query Please compare: A and B . Report which one has the smaller melting point value. Pick one and reply with its label.
// result B
(B: 115.2 °C, A: 195.1 °C)
